# PROTOCOL_DESCRIPTION: Cmax in SCID-Beige mouse at 5 mg/kg, ip
# Assay type: ADME, organism-based
# Set-up: dose 5 mg/kg, route intraperitoneal
# MEASUREMENT_CONDITIONS: in vivo
PROPERTY_NAME: Cmax (nM)
Record the value in nM, omitting the unit from your answer.

Problem: Would you mind telling me what Cmax value was observed for CN(C)CC#Cc1ccc(OCCCc2sc(N3CCc4cccc(C(=O)Nc5nc6ccccc6s5)c4C3)nc2C(=O)O)c(F)c1 [A-1155463] ?
Solution: 1800

###

# PROTOCOL_DESCRIPTION: Tmax in SCID-Beige mouse at 5 mg/kg, ip
# Type: ADME, organism-based
# Design: dose 5 mg/kg, route intraperitoneal
# MEASUREMENT_CONDITIONS: in vivo
PROPERTY_NAME: Tmax

Problem: Given CN(C)CC#Cc1ccc(OCCCc2sc(N3CCc4cccc(C(=O)Nc5nc6ccccc6s5)c4C3)nc2C(=O)O)c(F)c1 [A-1155463] , state its recorded Tmax.
Solution: 2 h
